- Target Desc: SARS-CoV-2 ORF 3a protein (Severe acute respiratory syndrome coronavirus 2, UniProt P0DTC3)
- Sequence (P0DTC3 whole entry, looked up): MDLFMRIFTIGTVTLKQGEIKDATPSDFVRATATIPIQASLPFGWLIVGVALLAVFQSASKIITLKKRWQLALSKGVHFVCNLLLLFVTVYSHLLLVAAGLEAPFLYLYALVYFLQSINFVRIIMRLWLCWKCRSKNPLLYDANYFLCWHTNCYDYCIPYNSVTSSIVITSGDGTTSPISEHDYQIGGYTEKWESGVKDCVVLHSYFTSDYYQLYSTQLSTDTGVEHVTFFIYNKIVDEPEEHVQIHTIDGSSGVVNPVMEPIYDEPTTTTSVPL
- Protocol Description: cell-based
- Assay Setup: read-out: % inhibition at 100 μM

[
  {
    "Compound": "CCCCCCCN(CC)CCCC(O)c1ccc(NS(C)(=O)=O)cc1 (stereo not shown) [Ibutilide]",
    "inhibition at 100 µM / %": 36.4
  },
  {
    "Compound": "CCCCc1oc2ccc(NS(C)(=O)=O)cc2c1C(=O)c1ccc(OCCCN(CCCC)CCCC)cc1",
    "inhibition at 100 µM / %": 45.4
  },
  {
    "Compound": "CC(C)NC[C@@H](O)c1ccc(NS(C)(=O)=O)cc1",
    "inhibition at 100 µM / %": 20.6
  },
  {
    "Compound": "CN(CCOc1ccc(NS(C)(=O)=O)cc1)CCc1ccc(NS(C)(=O)=O)cc1 [Dofetilide]",
    "inhibition at 100 µM / %": 65.1
  }
]
